# System: Saos, an osteosarcoma cell line
# assay_procedure: SRB assay, 48 h, cytostasis, Saos
# Format: cell-based
# experimental_context: SRB assay, ND = not detected
Each entry below lists one item and its recorded Saos Max. Inh. (%) value.
readout_label: Saos Max. Inh. (%)

compound	readout_label	value
Cc1ccc(C(C)C)cc1.F[P-](F)(F)(F)(F)F.O=C(OCC1OC(c2nnc(-c3ccccn3)o2)C(OC(=O)c2ccccc2)C(OC(=O)c2ccccc2)C1OC(=O)c1ccccc1)c1ccccc1.[Cl][Os+] (mixture of isomers) [Os-3]	Saos Max. Inh. (%)	65
Cc1ccc(C(C)C)cc1.F[P-](F)(F)(F)(F)F.O=C(OCC1OC(c2nnc(-c3ccccn3)o2)C(OC(=O)c2ccccc2)C(OC(=O)c2ccccc2)C1OC(=O)c1ccccc1)c1ccccc1.[Cl][Os+] (mixture of isomers) [Os-4]	Saos Max. Inh. (%)	100
Cc1ccc(C(C)C)cc1.F[P-](F)(F)(F)(F)F.O=C(OC1COC(c2nnc(-c3ccccn3)o2)C(OC(=O)c2ccccc2)C1OC(=O)c1ccccc1)c1ccccc1.[Cl][Os+] (mixture of isomers) [Os-5]	Saos Max. Inh. (%)	100
Cc1ccc(C(C)C)cc1.F[P-](F)(F)(F)(F)F.O=C(OCC1OC(n2cc(-c3ccccn3)nn2)C(OC(=O)c2ccccc2)C(OC(=O)c2ccccc2)C1OC(=O)c1ccccc1)c1ccccc1.[Cl][Os+] (mixture of isomers) [Os-6]	Saos Max. Inh. (%)	100
Cc1c(C)c(C)[c-](C)c1C.F[P-](F)(F)(F)(F)F.O=C(OCC1OC(n2cc(-c3ccccn3)nn2)C(OC(=O)c2ccccc2)C(OC(=O)c2ccccc2)C1OC(=O)c1ccccc1)c1ccccc1.[Cl][Ir+2] (mixture of isomers) [Ir-6]	Saos Max. Inh. (%)	100

---

# assay_procedure: Determination of the distribution coefficients (logD), n-octanol/PBS
# Type: physicochemical
# experimental_context: n-octanol / PBS pH = 7.40, rt
readout_label: LogD

compound	readout_label	value
Cc1c(C)c(C)[c-](C)c1C.F[P-](F)(F)(F)(F)F.O=C(OCC1OC(n2cc(-c3ccccn3)nn2)C(OC(=O)c2ccccc2)C(OC(=O)c2ccccc2)C1OC(=O)c1ccccc1)c1ccccc1.[Cl][Ir+2] (mixture of isomers)	LogD	2.36
Cc1c(C)c(C)[c-](C)c1C.F[P-](F)(F)(F)(F)F.O=C(OC1COC(c2nnc(-c3ccccn3)o2)C(OC(=O)c2ccccc2)C1OC(=O)c1ccccc1)c1ccccc1.[Cl][Rh+2] (mixture of isomers)	LogD	1.8
Cc1c(C)c(C)[c-](C)c1C.F[P-](F)(F)(F)(F)F.OC1COC(c2nnc(-c3ccccn3)o2)C(O)C1O.[Cl][Ir+2] (mixture of isomers)	LogD	−1.56
Cc1c(C)c(C)[c-](C)c1C.F[P-](F)(F)(F)(F)F.O=C(OCC1OC(c2nnc(-c3ccccn3)o2)C(OC(=O)c2ccccc2)C(OC(=O)c2ccccc2)C1OC(=O)c1ccccc1)c1ccccc1.[Cl][Rh+2] (mixture of isomers) [Rh-4]	LogD	1.64
Cc1c(C)c(C)[c-](C)c1C.F[P-](F)(F)(F)(F)F.OCC1OC(c2nnc(-c3ccccn3)o2)C(O)C(O)C1O.[Cl][Ir+2] (mixture of isomers) [Ir-9]	LogD	−1.47
